Data origin, for the record: PubChem BioAssay (NCI)

# Tested on: RXF 393 renal
# Assay details: NCI tumour cell line growth inhibition, 48 h; in the data active = GI50 below about 0.43 µM; inactive = the rest
Outcomes: active, inactive

- Molecule: "CC(C)(C)NCC(O)c1ccccc1Cl (stereo unspecified)"
  Discrete label: "inactive"
- Molecule: "C=CCc1c(O)c(C(=O)/C=C/c2ccc(Cl)cc2)c(OC)c2ccoc12"
  Discrete label: "inactive"
- Molecule: "Oc1c(C(c2ccc(F)cc2)N2CCCCC2)ccc2cncnc12 (stereo unspecified)"
  Discrete label: "active"
- Molecule: "c1ccc2c(N=NSc3ncnc4nc[nH]c34)c3ccccc3nc2c1"
  Discrete label: "inactive"
- Molecule: "CN1CCN(Cc2ccc(NC(=O)c3cncc(C#Cc4ccc(N)nc4)c3)cc2C(F)(F)F)CC1"
  Discrete label: "inactive"
- Molecule: "CCC(=O)NC1=C(Cl)C(=O)C(NC(=O)CC)=C(Cl)C1=O"
  Discrete label: "inactive"

----------
# Tested on: OVCAR-3 ovarian
# Assay details: NCI tumour cell line growth inhibition, 48 h
Listing: GI50 of selected compounds
Measured endpoint: GI50

- Compound: "CCC[CH2][Sn]1([CH2]CCC)[O]C(=O)c2cccc([N+](=O)[O-])c2C(=O)[O]1"
  Target desc: "OVCAR-3 ovarian"
  Measured endpoint: "GI50"
  Result: "1060 nM"
- Compound: "CCOC(=O)N1CCC(N=C2CSc3nnc(-c4cc(C(F)(F)F)cc(C(F)(F)F)c4)n3N2)CC1"
  Target desc: "OVCAR-3 ovarian"
  Measured endpoint: "GI50"
  Result: "2010 nM"
- Compound: "CCC(=O)NC1=C(Cl)C(=O)C(NC(=O)CC)=C(Cl)C1=O"
  Target desc: "OVCAR-3 ovarian"
  Measured endpoint: "GI50"
  Result: "5140 nM"
- Compound: "c1ccc2c(N=NSc3ncnc4nc[nH]c34)c3ccccc3nc2c1"
  Target desc: "OVCAR-3 ovarian"
  Measured endpoint: "GI50"
  Result: "2430 nM"
- Compound: "Oc1c(C(c2ccc(F)cc2)N2CCCCC2)ccc2cncnc12 (stereo unspecified)"
  Target desc: "OVCAR-3 ovarian"
  Measured endpoint: "GI50"
  Result: "783 nM"
- Compound: "CN(C(=O)C(C)(C)C)c1ccccc1I(=O)=O"
  Target desc: "OVCAR-3 ovarian"
  Measured endpoint: "GI50"
  Result: "> 100000 nM"
- Compound: "CC1=CC(C)=N/C(=N/S(=O)(=O)c2cc(C)c(Cl)cc2SCc2ccccc2)NN1"
  Target desc: "OVCAR-3 ovarian"
  Measured endpoint: "GI50"
  Result: "> 100000 nM"
- Compound: "COc1nn(C)cc1Nc1nccc(-c2c[nH]c3c(NC(=O)[C@@H](C)N4CCN(C)CC4)cccc23)n1"
  Target desc: "OVCAR-3 ovarian"
  Measured endpoint: "GI50"
  Result: "56100 nM"
- Compound: "C=CCc1c(O)c(C(=O)/C=C/c2ccc(Cl)cc2)c(OC)c2ccoc12"
  Target desc: "OVCAR-3 ovarian"
  Measured endpoint: "GI50"
  Result: "1970 nM"
- Compound: "Cc1nnc(N/N=C/c2ccc([N+](=O)[O-])o2)[nH]c1=O"
  Target desc: "OVCAR-3 ovarian"
  Measured endpoint: "GI50"
  Result: "429 nM"
- Compound: "CC(C)(C)NCC(O)c1ccccc1Cl (stereo unspecified)"
  Target desc: "OVCAR-3 ovarian"
  Measured endpoint: "GI50"
  Result: "> 100000 nM"

----------
# Test system: COLO 205 colon
# Assay details: NCI tumour cell line growth inhibition, 48 h

- Molecule: "CCOC(=O)c1nc2ccccc2nc1Nc1ccc(C(=O)OC)s1"
  Target desc: "COLO 205 colon"
  Censoring operator: ">"
  TGI [µM]: 100
- Molecule: "COC1(OC)CC(CO)(COc2cc(Cl)nc(N)n2)C1"
  Target desc: "COLO 205 colon"
  Censoring operator: ">"
  TGI [µM]: 100
- Molecule: "O=C1C(Cl)N(c2ccc([N+](=O)[O-])cc2)C1c1c[nH]c2ccccc12 (centres undefined)"
  Target desc: "COLO 205 colon"
  Censoring operator: ">"
  TGI [µM]: 100
- Molecule: "CC(C)OC1=C(CC2(C)OCCO2)C(=O)C12OCCO2"
  Target desc: "COLO 205 colon"
  Censoring operator: ">"
  TGI [µM]: 100
- Molecule: "C=CCC1(CN(C)C)CC/C(=C\\c2ccc3c(c2)OCO3)C1=O (centres undefined)"
  Target desc: "COLO 205 colon"
  Censoring operator: "="
  TGI [µM]: 54.1
- Molecule: "CC(=O)NC1C(OCc2ccccc2)OC(CO)C(O)C1OC(C)C(=O)NC(C(=O)NC(CCC(=O)NCCCNc1ccc([N+](=O)[O-])c2[nH]c3ccccc3c(=O)c12)C(N)=O)C(C)C (centres undefined)"
  Target desc: "COLO 205 colon"
  Censoring operator: ">"
  TGI [µM]: 100
- Molecule: "Nc1ccc(C#Cc2ccccc2C#CCCCCO)cc1"
  Target desc: "COLO 205 colon"
  Censoring operator: "="
  TGI [µM]: 30.1
- Molecule: "COc1cc2c(cc1OC)C(Cl)C(c1ccc(Br)cc1)=C2Cl (centres undefined)"
  Target desc: "COLO 205 colon"
  Censoring operator: "="
  TGI [µM]: 29.1
- Molecule: "CC1(C)CCC2=C(O1)c1ccccc1C(=Nc1ccc([N+](=O)[O-])cc1)C2=O"
  Target desc: "COLO 205 colon"
  Censoring operator: "="
  TGI [µM]: 30.4

----------
Listing: TGI of selected compounds
# System: SW-620 colon
# Assay details: NCI tumour cell line growth inhibition, 48 h
Measured endpoint: TGI (µM)

- Compound: "N=C(N)SCc1nc(-c2ccc(Cl)cc2)no1"
  Measured endpoint: "TGI"
  Censoring operator: "="
  Result number: 37.2
- Compound: "O=C(O)c1cc(NCc2cc(O)ccc2O)ccc1O"
  Measured endpoint: "TGI"
  Censoring operator: "="
  Result number: 50.6
- Compound: "Cc1ccsc1C(NC(=O)c1ccccc1)c1cc(Cl)c2cccnc2c1O (stereo not given)"
  Measured endpoint: "TGI"
  Censoring operator: "="
  Result number: 15
- Compound: "C=CC1=C(C)C(/C=c2\\[nH]/c(=C/c3[nH]c(CC4NC(=O)C(C)/C4=C\\C)c(C)c3CCC(=O)O)c(CC(=O)O)c2C)=NC1=O (stereo not given)"
  Measured endpoint: "TGI"
  Censoring operator: ">"
  Result number: 100
- Compound: "Cc1cc(C)[n+]2c(c1)C=CC2"
  Measured endpoint: "TGI"
  Censoring operator: ">"
  Result number: 100
- Compound: "CCN1CCN(c2ccc(NC(=O)Nc3nc4ccc(-c5ccccc5OC)cc4s3)cc2)CC1"
  Measured endpoint: "TGI"
  Censoring operator: "="
  Result number: 3.55
- Compound: "COc1ccc(C2N(c3ccc(C)c(N=C=O)c3)C(=O)N3C(c4ccc(OC)cc4)N(c4ccc(C)c(N=C=O)c4)C(=O)N23)cc1 (stereo not given)"
  Measured endpoint: "TGI"
  Censoring operator: ">"
  Result number: 100
- Compound: "CCN(CC)/N=C\\c1c2ccccc2cc2ccccc12"
  Measured endpoint: "TGI"
  Censoring operator: ">"
  Result number: 100
- Compound: "O/N=C1\\C/C(=N\\O)c2c(Br)sc(Br)c21"
  Measured endpoint: "TGI"
  Censoring operator: "="
  Result number: 72.7
- Compound: "Cc1cc(I)cc(CN(C)CCCN2CCC(C)CC2)c1O"
  Measured endpoint: "TGI"
  Censoring operator: "="
  Result number: 26.6

----------
# System: NCI/ADR-RES ovarian
# Assay details: NCI tumour cell line growth inhibition, 48 h

- Compound: "Oc1ccc(-c2nc3cc(C(F)(F)F)ccc3s2)cc1"
  Target desc: "NCI/ADR-RES ovarian"
  TGI: "35.5 µM"
- Compound: "CC1Cc2c(Cl)ncnc2N(C)c2ccccc21 (centres undefined)"
  Target desc: "NCI/ADR-RES ovarian"
  TGI: "12.4 µM"
- Compound: "O=C1CCCC1CC(CN1CCOCC1)Sc1nnnn1-c1ccccc1 (centres undefined)"
  Target desc: "NCI/ADR-RES ovarian"
  TGI: "> 100 µM"
- Compound: "C=C1c2c(n(S(=O)(=O)c3ccccc3)c3ccccc23)[C@@]2(C(=O)OC)CC3C=CC2N1C3"
  Target desc: "NCI/ADR-RES ovarian"
  TGI: "> 100 µM"
- Compound: "Cc1ccc(C)n1-c1ccccc1C1C=Cn2c(=O)oc3c(OC(C)C)c(OC(C)C)c(O)c1c32 (centres undefined)"
  Target desc: "NCI/ADR-RES ovarian"
  TGI: "> 100 µM"
- Compound: "COc1cc(C2c3cccc4cccc(c34)C3CCC(=O)N32)cc(OC)c1O (centres undefined)"
  Target desc: "NCI/ADR-RES ovarian"
  TGI: "> 50 µM"
- Compound: "CC(C)[C@@H](C(=O)O[C@@H]1/C=C/C(=O)O[C@@H](C)CCC/C=C/[C@@H]2C[C@H](O)C[C@H]21)N(C)C"
  Target desc: "NCI/ADR-RES ovarian"
  TGI: "> 93.6 µM"
- Compound: "C=C(C)C1(Sc2ccc(OC)cc2)CC1"
  Target desc: "NCI/ADR-RES ovarian"
  TGI: "> 100 µM"
- Compound: "CC(=O)NC1C(OCc2ccccc2)OC(CO)C(O)C1OC(C)C(=O)NC(C(=O)NC(CCC(=O)NCCCNc1ccc([N+](=O)[O-])c2[nH]c3ccccc3c(=O)c12)C(N)=O)C(C)C (centres undefined)"
  Target desc: "NCI/ADR-RES ovarian"
  TGI: "> 100 µM"
